System: MS2 coat protein
Test: apparent KD of MS2 coat protein; higher = weaker reporter binding
Settings: Eterna round: R107; input ligand: arginine 13.2 mM
Property: apparent KD of MS2 coat protein (nM)
Write it as a number; the unit nM goes unstated.

Here's what some known entries look like.
[[record]]
ordered_residues = "GUAGCUAUCGCGGCCGCCACUAAACCGGAAACGGAACAGUAGGAUCACCAUUGUGGCGAAAGCCAUAGGACCGGGCGAUAGCUAC [TryBS - Double Magnet system 2]"
quantitative_result = 601

[[record]]
ordered_residues = "ACCUGUACGAAAAGUGCAGGACAUGGAAAUCGAGGACCGGUACGGCCGCCACUCGUUGAAAACAAGUGGAUCACCCUUGUCCAUG [TrypAS 3 #AlternativeMS2 #Zipper #StaticStem]"
quantitative_result = 35.3

[[record]]
ordered_residues = "UGAUACCAGUCGGCCGCCACUACAUGAGGAUCACCCAUGUAUGGGUCAAUGCUAGAUACUAGCAGUAGGACCGGGACUGGUAUCU"
quantitative_result = 11.4

[[record]]
ordered_residues = "UUGGUACAUGAGGAUCACCCAUGUACUGAAGGAGCGGGACGAAUCUCAGGUAGGUCGCAGACAUGAGGAUCACCCAUGUAUGGCU [Exclusion Arginine A GF 17]"
quantitative_result = 10.2

[[record]]
ordered_residues = "UAAACACAUGAGGAUCACCCAUGUCAUGAUACCAGUCAACAUGAGGACCCUUGGCAGCAUAAAAUGGGUAACAUGAGGAUCACCC [AstrosEXyTheA#2]"
quantitative_result = 46.2


Value of apparent KD of MS2 coat protein reported for the sequence CGCGGGCCACAUGAGGAUCACCCAUGUGAAGGAGCGGCGAAUAAGCCAGGUAGGUCGCGCAUGAAUAAAUCAUGUAGGUGGCGAA [XArg-A 10 V1&2] is 16.4

// apparent KD of MS2 coat protein lookup, sequence = AUAACAUGAGGAUCACCCAUGUAAGCUGAAGGAGCGCUGGAAACAGCAGGUAGGUCGCAGCUACCUACCACCUCAUGAGGUAGGU [(M1)-(M2)-(Arg1)-(Arg2)-(A)'-(M)'-(A)''_Design6] , result: 16.4

For GCACCAGGUACGGAUACCAGCUGCCACAGUUACAUGAGGAUCACCCAUGUGAAAACGUGUAGCCCUUGGCAGCUGUACCUGGUGC [SSThB NP+V+V2 #8 Same Structure] the sequence record lists apparent KD of MS2 coat protein as 198

So, AUCGUACCUGAUGAUACCAGCAUGUGCUCGUAACAUGAGGAUCACCCAUGUGAUCAGUAAUGCCCUUGGCAGCAUGAUCGGUACA [Same State - Theophylline B (Freestyle 17)] ? Its apparent KD of MS2 coat protein was 58.8

# apparent KD of MS2 coat protein (sequence: AGUCGAAACUGAAGGAGCGAGAUGACAACAUUGGGUCUAACAUGAGGAUCACCCAUGUAAUCUCAGGUAGGUCGCAGUAACAAAA [Exclusion Arginine B GF 16] ) is 172

Record summary for "UGUAUGGACUGAAGGAGCGGAUGAUAACCUGAGGAUCACCCGGGUAAUAAGGCGAAAGCCAUCCAGGUAGGUCGCAGUCCAUACU" : reported apparent KD of MS2 coat protein = 53.2
